B1: library; numbered along this chain (parent)
chain: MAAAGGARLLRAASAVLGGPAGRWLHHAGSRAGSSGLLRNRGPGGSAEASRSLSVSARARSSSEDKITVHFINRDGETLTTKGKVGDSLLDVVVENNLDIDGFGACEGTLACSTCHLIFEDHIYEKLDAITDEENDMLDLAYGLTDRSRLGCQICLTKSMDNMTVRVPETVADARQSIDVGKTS

variants of: B1; experiment: scaled log2 fold change in cell abundance, elesclomol vs control (0 = silent mean, 1 = nonsense mean) (scaled log2 ratio); higher = higher viability under elesclomol (loss of FDX1 cuproptosis function); conditions: with HEK293T FDX1 KO; elesclomol 40 nM; glucose 10 mM; 11 days;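 also: variant abundance is its share of total variant reads in each endpoint sample, from next-generation sequencing of the integrated ORF PCR-amplified out of genomic DNA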
Entries and their scaled log2 fold change values follow.
The answer should be a number; do not append a unit.

{"change": "A111M", "scaled log2 fold change": 1.22}
{"change": "G18L", "scaled log2 fold change": 0.123}
{"change": "S30W", "scaled log2 fold change": -0.103}
{"change": "A32F", "scaled log2 fold change": 0.033}
{"change": "L138F", "scaled log2 fold change": -0.0648}

Note: attention shifts to another entry.
Q: Using the record for `L37M` , report its scaled log2 fold change.
Result: 0.0807
